Target: T1, human IL-4Rα (human, UniProt P24394 26-232)
T1 construct: also called Hu IL-4Rα; hIL-4Rα
T1 sequence: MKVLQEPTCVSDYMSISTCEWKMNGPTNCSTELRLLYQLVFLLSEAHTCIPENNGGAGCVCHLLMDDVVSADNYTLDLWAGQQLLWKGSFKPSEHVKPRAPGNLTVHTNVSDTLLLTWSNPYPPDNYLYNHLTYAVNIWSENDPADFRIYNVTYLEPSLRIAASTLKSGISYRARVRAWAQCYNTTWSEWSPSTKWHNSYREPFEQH
Test: SPR, Carterra LSA;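 also: antibodies captured on an anti-human Fc sensor chip, antigen injected at several concentrations, association and dissociation rates fitted with a 1:1 Langmuir model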
pKd: −log10 of the molar value.
List of pKd values.
quantity: pKd

{"binder": "Construct 43 (mAb482) (antibody, IgG4, V domains shown, VH/VL only) VH: EVQLVESGGGLEQPGGSLRLSCAGSGFTFRDFAMTWVRQAPGKGLEWVSSISGGGGNTYYADSVKGRFTISRDNSKNTLYLQMNSLRAEDTAVYYCAKDRLSIAVRPRYYGLDVWGQGTTVTVSS VL: DIVMTQSPLSLPVTPGEPASISCTSSQSLLYSIGYNYVDWYLQKSGQSPQLLIYLGSKRASGVPDRFSGSGSGTDFTLKISRVEAEDVGFYYCMQSLTSPYTFGQGTKLEIK", "experimental result": 11.03}
{"binder": "Construct 31 (mAb443) (antibody, IgG4, V domains shown, VH/VL only) VH: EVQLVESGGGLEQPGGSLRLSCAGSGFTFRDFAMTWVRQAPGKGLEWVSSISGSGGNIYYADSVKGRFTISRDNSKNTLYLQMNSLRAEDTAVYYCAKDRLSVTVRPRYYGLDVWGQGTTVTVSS VL: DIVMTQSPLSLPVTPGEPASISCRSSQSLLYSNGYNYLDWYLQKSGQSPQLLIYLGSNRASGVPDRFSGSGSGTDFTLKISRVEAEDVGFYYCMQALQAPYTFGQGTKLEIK", "experimental result": 11.08}
{"binder": "Construct 17 (mAb425) (antibody, IgG4, V domains shown, VH/VL only) VH: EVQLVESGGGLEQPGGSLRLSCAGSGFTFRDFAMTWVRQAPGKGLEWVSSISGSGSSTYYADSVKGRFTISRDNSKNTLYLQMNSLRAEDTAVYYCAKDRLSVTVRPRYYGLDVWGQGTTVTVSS VL: DIVMTQSPLSLPVTPGEPASISCTASQSLLYSIGYNYVDWYLQKSGQSPQLLIYLGSKRASGVPDRFSGSGSGTDFTLKISRVEAEDVGFYYCMQAYNSPYTFGQGTKLEIK", "experimental result": 10.77}
